assay: LDH chemical-induced cytotoxicity; type: cell-based; details: HaCaT cells (keratinocytes), HaCaT (human keratinocytes)
Quantity name: CC50 at 24 h

For record O=C(OC[C@H]1O[C@@H](OC(=O)c2cc(O)c(O)c(O)c2)[C@H](OC(=O)c2cc(O)c(O)c(O)c2)[C@@H](OC(=O)c2cc(O)c(O)c(O)c2)[C@@H]1OC(=O)c1cc(O)c(O)c(O)c1)c1cc(O)c(O)c(O)c1 the listed CC50 at 24 h is > 272 µM

###

Assay: LDH chemical-induced cytotoxicity
Assay type: cell-based
Details: Hek293 cells (kidney), Hek293 (human kidney), serum-supplemented medium
Experimental: Hek293 cells were purchased from BEI Resources. HaCaT cells were purchased from ATCC. HepG2 cells were provided by Dr. Edward Morgan (Emory University). […] The mammalian culture was standardized to 4 × 10^3 cells per 100 μL. […] Plates were then evaluated with an LDH cytotoxicity assay (G Biosciences) and processed according to the manufacturer’s protocol for chemical-induced cytotoxicity. […]
Quantity name: CC50 at 24 h

CC50 at 24 h reading for O=C(OC[C@H]1O[C@@H](OC(=O)c2cc(O)c(O)c(O)c2)[C@H](OC(=O)c2cc(O)c(O)c(O)c2)[C@@H](OC(=O)c2cc(O)c(O)c(O)c2)[C@@H]1OC(=O)c1cc(O)c(O)c(O)c1)c1cc(O)c(O)c(O)c1 : > 256 µg/mL
